Values from PubChem BioAssay (Tox21)

# PROTOCOL DETAILS: qHTS RealTime-Glo MT Cell Viability Assay in HEK293 cells - 8 hour (AID 1224887); note: nearly all actives have a fitted effect of over 50% in size
# REPORTED CONDITIONS: RealTime-Glo luminescence; series mostly up to 76.8 µM
Records with an inconclusive call do not appear. Active and inactive are the calls of the source. Calls come from the whole dose curve; as a rule, active = well fitted cell-killing curve with a large enough effect in the repeat runs; inconclusive = weak or mixed curves, or effect the other way; inactive = flat fitted curve, though single readings scatter.
In this exercise, the only acceptable responses are active, inactive

> print(dat)
                                    molecule  label.value
 1  CC1CC(OC(=O)C(O)c2ccccc2)CC(C)(C)N1C (configuration not stated)     inactive
 2  CN1CCCN=C1COC(=O)C(O)(c1ccccc1)C1CCCCC1 (configuration not stated)     inactive
 3  C[C@@H]1CC(=O)NN=C1c1ccc(NN=C(C#N)C#N)cc1     inactive
 4           C[C@H]1C[C@H](O)c2ccsc2S1(=O)=O     inactive
 5                                  CC(C)C=O     inactive
 6       COc1cc(C(=O)NCCCCCC(=O)O)cc(OC)c1OC     inactive
 7                       CCCCCCC(C)(C)C(=O)O     inactive
 8  CC1(C)O[C@@H]2C[C@H]3[C@@H]4C[C@H](F)C5=CC(=O)C=C[C@]5(C)[C@H]4[C@@H](O)C[C@]3(C)[C@]2(C(=O)CO)O1     inactive
 9               O=Cc1c2ccccc2c(Cl)c2ccccc12     inactive
10                             Cc1ccc(CO)cc1     inactive

Prompt: Record lookup: outcome of this test for O=C1c2ccccc2C(=O)N1CCc1noc(-c2ccc(CN3CCCCCC3)s2)n1 ?
Response: active

Prompt: Record lookup: outcome of this test for O=c1[nH]ncc2ccccc12 ?
Response: inactive
